Assign phosphorylation enrichment to each entry below.
# Tested on: c-Src
# experiment: phosphorylation enrichment, bacterial display (enrichment ratio); higher = better substrate or ligand; peptides without Tyr show the background;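 note: 11-residue human phosphosite peptides and single-mutation variants displayed on the E. coli surface, counted by deep sequencing, each peptide's frequency after selection divided by its frequency in the unselected input library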;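 note: frequency after pTyr selection over input frequency; kinase dosed for 20-30% of maximal phosphorylation in three min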
Numbers only.

Check out these entries, answers already filled in.
> print(dat)
                       itemsequence                  resulttype  testvalue
 1     PSGPAYRGAVP [ASAH1_Y43_T42A]  phosphorylation enrichment      0.506
 2          YCVDCYKNFVA [FHL1_Y213]  phosphorylation enrichment      0.507
 3         LFMGDYVDRGY [PPP2CA_Y86]  phosphorylation enrichment        0.8
 4            EVEFEYPFRLH [SYP_Y73]  phosphorylation enrichment      0.588
 5      AEQEEYSAMRD [NRAS_Y64_G60E]  phosphorylation enrichment      0.536
 6     ADEEFYEIIAA [FEStide_F_2014]  phosphorylation enrichment       3.36
 7          DQIDTYELSGG [DNM1_Y354]  phosphorylation enrichment       1.28
 8   EEGNPYYSSTR [MCCC2_Y520_A524T]  phosphorylation enrichment       1.44
 9  KEAQVYQAFRL [SUCLG2_Y343_K347R]  phosphorylation enrichment       11.3
10          ELTTCYRKKCC [CCBE1_Y70]  phosphorylation enrichment      0.379

Give phosphorylation enrichment for each listed item.
1. TMKSRYMELYD [BBS2_Y644]
2. VLVSQYEKLDA [AMZ2_Y26_N30D]
3. RRNEEYCLLDS [ITK_Y198]
4. KMMGRYEMYAR [UPB1_Y362_T359M]
5. VAFVYYKSIGP [ADGRL4_Y302]

Reply text:
[0.73, 0.539, 0.805, 0.414, 0.465]

Give phosphorylation enrichment for each listed item.
1. RLDGEYFTLQI [TP53_Y327_P322R]
2. IHFAIYLLKFS [ARMC9_Y107_YF]
3. RPYSPYIIRGM [LRP5_Y1531_R1529S]
4. GVLKEYGEKVL [CPS1_Y529_V531E]
5. YGPPQYNIQYS [ERBB2IP_Y977]
6. SGSIHYSCVPR [GLB1_Y57_R59C]
7. DVYVSYDYGKS [SORL1_Y139]

Reply text:
[2.16, 0.499, 1.07, 0.396, 0.617, 0.526, 5.25]

Give phosphorylation enrichment for each listed item.
1. IKKLIYVHLVI [JAGN1_Y42]
2. RNYGTYTAGLS [RHBDD1_Y264_D262G]
3. RNVFFYSFLLK [PTEN_Y178_Y174N_YF]
4. DIDKIYIRTGI [PIK3CA_Y355_V356I]
5. AEEKEYHAEEG [EGFR_Y869_G873E]

Reply text:
1: 0.424; 2: 1.94; 3: 0.508; 4: 0.395; 5: 0.451

Give phosphorylation enrichment for each listed item.
1. QLCVNYPGGYT [PROS1_Y259]
2. LFSGDCFRIQG [DDR2_Y740_Y740C_YF]

Reply text:
0.537
0.459

* * *

# experimentalTarget: FGFR1 (UniProt P11362)
# Sequence (P11362 whole entry, looked up): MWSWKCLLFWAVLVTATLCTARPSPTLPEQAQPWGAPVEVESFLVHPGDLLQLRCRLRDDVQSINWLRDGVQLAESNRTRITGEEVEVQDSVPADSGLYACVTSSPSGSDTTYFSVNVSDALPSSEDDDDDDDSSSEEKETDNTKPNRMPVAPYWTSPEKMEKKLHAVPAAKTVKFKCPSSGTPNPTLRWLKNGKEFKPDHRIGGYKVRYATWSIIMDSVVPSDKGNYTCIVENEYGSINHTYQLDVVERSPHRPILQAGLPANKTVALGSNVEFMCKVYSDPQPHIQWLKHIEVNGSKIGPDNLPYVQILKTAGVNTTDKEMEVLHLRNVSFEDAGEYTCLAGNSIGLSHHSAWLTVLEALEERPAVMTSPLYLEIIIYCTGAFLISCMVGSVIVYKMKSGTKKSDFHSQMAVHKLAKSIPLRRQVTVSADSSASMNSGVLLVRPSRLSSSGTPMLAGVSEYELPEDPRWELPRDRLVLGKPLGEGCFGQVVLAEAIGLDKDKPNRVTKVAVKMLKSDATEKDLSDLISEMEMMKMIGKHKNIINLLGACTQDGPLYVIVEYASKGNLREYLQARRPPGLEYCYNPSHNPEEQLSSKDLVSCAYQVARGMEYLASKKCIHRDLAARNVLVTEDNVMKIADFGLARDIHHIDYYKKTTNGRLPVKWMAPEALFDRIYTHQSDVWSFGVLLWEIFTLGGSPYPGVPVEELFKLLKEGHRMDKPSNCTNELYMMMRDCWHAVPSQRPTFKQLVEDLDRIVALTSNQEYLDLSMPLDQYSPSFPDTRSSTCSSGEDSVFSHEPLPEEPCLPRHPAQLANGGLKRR
# experiment: phosphorylation enrichment, bacterial display (enrichment ratio); higher = better substrate or ligand; peptides without Tyr show the background
Could you label it 1.0 if measured phosphorylation enrichment is 0.5 or higher, and 0.0 otherwise?

Answered cases to consult:
> print(dat)
                      itemsequence  categorylabel
1     LAIELYVVVCK [RHO_Y136_R135L]            1.0
2        NWGSPYKSNGC [ZNF347_Y261]            0.0
3    LENSTYQYIHV [CRB1_Y760_R764H]            1.0
4  PPSLSYLSFEG [EXOSC3_Y143_A139P]            1.0
5  EYGRRYGFSCQ [CCDC93_Y209_R213C]            1.0

Inquiry: Reported phosphorylation enrichment reaches at least 0.5 for RTMPDYTSFNT [EPHB2_Y912_I909M] ?
Reply text: 1.0

Inquiry: Reported phosphorylation enrichment reaches at least 0.5 for FADIAYNYRDG [PAH_Y166_H170D] ?
Reply text: 0.0

* * *

# experimentalTarget: EPHB2 (UniProt P29323)
# Sequence (P29323 whole entry, looked up): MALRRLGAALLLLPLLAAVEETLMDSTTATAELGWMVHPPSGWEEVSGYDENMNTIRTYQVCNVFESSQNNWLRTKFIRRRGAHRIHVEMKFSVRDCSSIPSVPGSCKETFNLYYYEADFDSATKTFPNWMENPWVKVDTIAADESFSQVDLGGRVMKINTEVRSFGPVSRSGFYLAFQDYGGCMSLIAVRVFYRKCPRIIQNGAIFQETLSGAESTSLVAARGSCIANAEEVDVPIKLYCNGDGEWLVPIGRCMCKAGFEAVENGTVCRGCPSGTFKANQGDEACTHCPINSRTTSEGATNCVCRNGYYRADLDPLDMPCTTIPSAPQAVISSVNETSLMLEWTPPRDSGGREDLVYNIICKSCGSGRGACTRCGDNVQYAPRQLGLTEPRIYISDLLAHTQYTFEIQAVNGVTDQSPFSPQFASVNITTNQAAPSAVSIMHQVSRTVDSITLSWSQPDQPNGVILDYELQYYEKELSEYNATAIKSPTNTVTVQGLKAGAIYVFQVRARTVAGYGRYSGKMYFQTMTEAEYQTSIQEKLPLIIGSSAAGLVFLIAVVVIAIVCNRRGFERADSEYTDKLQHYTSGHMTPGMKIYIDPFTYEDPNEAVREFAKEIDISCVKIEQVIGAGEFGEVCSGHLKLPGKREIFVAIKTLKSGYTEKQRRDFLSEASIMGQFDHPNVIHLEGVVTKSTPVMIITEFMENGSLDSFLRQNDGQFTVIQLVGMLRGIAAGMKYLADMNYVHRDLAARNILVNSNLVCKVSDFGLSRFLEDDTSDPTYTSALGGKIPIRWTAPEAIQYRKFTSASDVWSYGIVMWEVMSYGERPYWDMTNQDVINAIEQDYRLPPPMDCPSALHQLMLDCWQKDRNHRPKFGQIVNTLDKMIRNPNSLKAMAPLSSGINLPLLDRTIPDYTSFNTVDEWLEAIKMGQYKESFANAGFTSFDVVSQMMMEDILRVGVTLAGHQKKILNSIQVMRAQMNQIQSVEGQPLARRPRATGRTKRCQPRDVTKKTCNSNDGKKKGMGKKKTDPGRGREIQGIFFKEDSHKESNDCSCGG
# experiment: phosphorylation enrichment, bacterial display (enrichment ratio); higher = better substrate or ligand; peptides without Tyr show the background
resultType: phosphorylation enrichment
Numbers only.

Check out these entries, answers already filled in.
> print(dat)
                    itemsequence  testvalue
1  FFRCHYPLTTL [TNS4_Y644_R642C]      0.512
2       ARGMEYLASKK [FGFR1_Y613]      0.367
3     MTKEQYIKMNR [ARFGEF2_Y797]      0.357
4    QGIFGYHHFMQ [UFSP2_Y287_YF]       0.59
5    RRVLVYGDRGA [QDPR_Y16_G18D]      0.322

Attention now shifts to the item below.
Inquiry: Would you please give the reported phosphorylation enrichment of KGELRYMHSPV [ABCD1_Y281_R285P] with EPHB2 (UniProt P29323)?
Reply text: 0.367

* * *

Assign phosphorylation enrichment to each entry below.
# experimentalTarget: MERTK (UniProt Q12866)
# Sequence (Q12866 whole entry, looked up): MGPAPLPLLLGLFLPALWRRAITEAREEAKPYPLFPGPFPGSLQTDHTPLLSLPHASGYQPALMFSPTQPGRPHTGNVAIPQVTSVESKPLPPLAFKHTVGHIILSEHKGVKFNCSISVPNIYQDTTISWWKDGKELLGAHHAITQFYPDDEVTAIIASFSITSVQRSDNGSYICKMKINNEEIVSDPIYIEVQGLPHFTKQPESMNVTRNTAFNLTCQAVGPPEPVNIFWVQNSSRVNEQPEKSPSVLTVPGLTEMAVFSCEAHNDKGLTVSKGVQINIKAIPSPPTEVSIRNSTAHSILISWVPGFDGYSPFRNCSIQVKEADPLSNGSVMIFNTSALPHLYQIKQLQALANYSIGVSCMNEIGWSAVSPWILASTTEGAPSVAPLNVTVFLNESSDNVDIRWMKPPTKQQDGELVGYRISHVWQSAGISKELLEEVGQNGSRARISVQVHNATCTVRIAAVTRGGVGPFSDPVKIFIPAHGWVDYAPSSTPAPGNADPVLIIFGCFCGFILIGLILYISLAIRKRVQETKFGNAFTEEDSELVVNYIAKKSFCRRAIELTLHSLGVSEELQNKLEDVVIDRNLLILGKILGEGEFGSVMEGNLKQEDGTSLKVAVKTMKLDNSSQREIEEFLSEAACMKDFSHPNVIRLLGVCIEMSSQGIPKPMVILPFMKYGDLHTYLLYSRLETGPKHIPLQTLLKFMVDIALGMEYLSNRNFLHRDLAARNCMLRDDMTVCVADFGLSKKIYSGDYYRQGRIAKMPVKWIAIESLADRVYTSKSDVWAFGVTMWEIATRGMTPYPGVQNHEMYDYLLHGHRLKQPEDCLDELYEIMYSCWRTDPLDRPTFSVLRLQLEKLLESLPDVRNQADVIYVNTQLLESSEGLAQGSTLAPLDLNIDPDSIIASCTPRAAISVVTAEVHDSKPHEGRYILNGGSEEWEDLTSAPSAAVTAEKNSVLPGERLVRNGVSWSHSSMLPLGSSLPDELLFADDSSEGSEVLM
# experiment: phosphorylation enrichment, bacterial display (enrichment ratio); higher = better substrate or ligand; peptides without Tyr show the background

Check out these entries, answers already filled in.
> print(dat)
                       itemsequence  testvalue
1         IGEVVYQRAVM [GRIN2A_Y502]      0.513
2  ADRNHYRRFRR [YBX1_Y145_P149R_YF]      0.672
3         IIQRAYRRHLL [SCN1A_Y1926]      0.608
4         NHFKIYNLCAE [PTEN_Y68_YF]      0.584
5     CTTIHYHYMCN [TP53_Y234_N235H]      0.446
6   TSIGNYYKPWF [DHCR24_Y299_N294T]       10.1
7    NFRNTYVNANE [KCNH2_Y475_T473N]      0.404
8          LSGVIYVILRK [PMP22_Y153]      0.364

Give phosphorylation enrichment for each listed item.
1. HSPLRYTSILT [OR51B6_Y130_R125H]
2. LVMFIYAISGM [SCN1A_Y1684_F1687S]
3. ALEHKYWALGQ [MAP1A_Y1555_Q1553H]
4. FGSLLYKFAFK [FANCD2_Y458_YF]
5. LTFDEYRNNSQ [ANXA3_Y216_I219N]
6. VYLGAYDRFLP [SLC22A5_Y486]

Reply text:
[0.634, 0.725, 0.596, 0.4, 0.4, 4.72]

Give phosphorylation enrichment for each listed item.
1. TKDTFYKQPVF [GBA_Y451_M455V]
2. PEADKYHLTFA [FGG_Y300_R301H_YF]
3. ISRASYFRKGG [ALK_Y1282_Y1278S_YF]
4. LDFPEYDGVDR [CASQ1_Y43]
5. EFKDAYKFAAD [BRDT_Y335_YF]

Reply text:
0.417
0.75
0.469
0.556
0.492

Give phosphorylation enrichment for each listed item.
1. DTYDPYLDIAL [USP36_Y268_V271I]
2. EAMPDYKKQLR [SPATA18_Y229_S227P]
3. FEEDSYVKRSQ [RET_Y905_YF]
4. IHHIDYYKKTT [FGFR1_Y653]

Reply text:
1: 0.611; 2: 0.322; 3: 0.417; 4: 0.508

* * *

Assign phosphorylation enrichment to each entry below.
# experimentalTarget: EPHB2 (UniProt P29323)
# experiment: phosphorylation enrichment, bacterial display (enrichment ratio); higher = better substrate or ligand; peptides without Tyr show the background
Give bare numbers.

Give phosphorylation enrichment for each listed item.
1. SLIDMYSKVLD [OPA1_Y268_E270K]
2. RLRKYHLGKYL [KLB_Y906_Y906H]
3. KVGRVYLFLQP [ITGA2B_Y360_E355K]
4. HAVFVYDICHV [TWNK_Y508_YF]
5. CERLPYDASKW [FLT1_Y815]

Reply text:
1. 0.57
2. 0.399
3. 0.522
4. 1.36
5. 0.46

* * *

Assign phosphorylation enrichment to each entry below.
# System: Fer (mouse)
# experiment: phosphorylation enrichment, bacterial display (enrichment ratio); higher = better substrate or ligand; peptides without Tyr show the background
Numbers only.

> print(dat)
                       itemsequence                  resulttype  testvalue
1      CEHRGSLYLAI [TEK_Y897_Y897S]  phosphorylation enrichment      0.573
2     SVVLPYEPPEV [TP53_Y220_V218L]  phosphorylation enrichment      0.746
3  NLMPAYHKCIQ [CYP21A2_Y190_Y191H]  phosphorylation enrichment      0.507

Give phosphorylation enrichment for each listed item.
1. MKALGYFAVGT [OPA1_Y498_V502G]
2. QKMADYSNKLH [PDPR_Y104_Y109H]
3. KHCEDYVCSFN [DSC1_Y846_YF]
4. LKGQVDILGRE [ASS1_Y359_Y359D]
5. PTYENYANSTQ [SLC12A3_Y70_H69N]
6. LLVVLYKYRCY [PSEN1_Y154]

Reply text:
1: 0.395; 2: 0.571; 3: 0.525; 4: 0.598; 5: 0.69; 6: 0.699

Inquiry: Assign phosphorylation enrichment to the following record: FLGEEYVKAVG [TF_Y674_YF]
Reply text: 0.58
